assay-name: in vitro
experimental-conditions: human, HeLa cells
Ends that are not written are not given here.
value-kind: viability (%)
Give bare numbers, in %.

Some solved entries appear below for comparison.
>  <record-sequence>
MHHHHHHKWKLFKKIGAVLKVLTTGYGRKKRRQRRRC [M-His-CM18-TAT-Cys]

>  <observed-result>
33.1

$$$$
>  <record-sequence>
HHHHHHHHHHHHKWKLFKKIGAVLKVLTTGYARAAARQARA [12His-CM18-PTD4]

>  <observed-result>
97.5

$$$$
>  <record-sequence>
HHHHHHCLLKKWEAKLAKKIGGGGRQARAKALAKA [FSD30]

>  <observed-result>
97.4

$$$$
>  <record-sequence>
HHHHHHHHRQRRRWEARGFLGGGGYARAARQARAA [FSD39]

>  <observed-result>
99.2

$$$$
>  <record-sequence>
HHHHHHKLLKRWEAKLAKALAKALAKHLAKALAKA [FSD35]

>  <observed-result>
96.1

$$$$

The following sequences each have a reported value; give each one's viability.
1. HHHHHHHHHKWKLFKKIGAVLKVLTTGYARAAARQARA [Peptide 9His-CM18-PTD4]
2. GHHHHHHHLIHIWEAKLAKLAKALARAAARQARAK [FSD38]

[98.7, 95]

The following sequences each have a reported value; give each one's viability.
1. HHHHHHWLKLLRRAAKKAARLYRKLLRKARKLHHHHHH [FSD2]
2. YGRKKRRQRRRCKKALLALALHHLAHLALHLALALKKA [TAT-LAH4]
3. HHHHHHLLKLWSRLLKLWTQGRRLKAKRAKA [FSD16]

1: 55.8; 2: 96.2; 3: 99.1

The following sequences each have a reported value; give each one's viability.
1. YARAAARQARA [PTD4, reference compound]
2. HAHHAHHAHKWKLFKKIGAVLKVLTTGYARAAARQARA [3HA-CM18-PTD4]
3. HHHHHHKWKLARAFARAIKKLYARALRRQARTG [FSD8]
4. HHHHHHKWKLARAFARALRAIKKLYARALRRQARTG [FSD11]
5. HHHHHHKLIHIWEAKLFKKIRAAARQARARRAAKA [FSD34]

98.2
51.5
42.3
46.2
96.4

====

Answer each item with its documented viability at 1 min, 8 µM.
assay-name: in vitro
experimental-conditions: human, NCI-H196 cells
Ends that are not written are not given here.
One number for each entry, in %.

Some solved entries appear below for comparison.
>  <record-sequence>
KWKLARAFARAIKKLGGSGGGSYARALRRQARTG [FSD10]

>  <viability at 1 min, 8 µM / %>
81

$$$$
>  <record-sequence>
HHHHHHLLKLWSRLLKLWTQGRRLKAKRAKAHHHHHH [FSD5]

>  <viability at 1 min, 8 µM / %>
69.9

$$$$

// moving on: another record for viability at 1 min, 8 µM
Which measured viability at 1 min, 8 µM value corresponds to KWKLARAFARAIKKLYARALRRQARTG [FSD12] ?
71.9

====

assay-name: in vitro
experimental-conditions: human, HeLa cells
Ends that are not written are not given here.
value-kind: viability at 10 s, 50 µM (%)
Numbers only, in %.

Which measured viability at 10 s, 50 µM value corresponds to HHHHHHKWKLFKKIGAVLKVLTTGYGRKKRRQRRRC [His-CM18-TAT-Cys] ?
41.4

====

assay-name: in vitro
experimental-conditions: human, HeLa cells, Cell viability (%) (±St Dev.; n = 3)
Ends that are not written are not given here.
// returns f unless viability is strictly below 80%, in which case t

Please review the entries below; each comes with its answer.
>  <record-sequence>
HHHHHHFLKIWSRLIKIWTQGRRKGAQAAFR [FSD21]

>  <class>
t

$$$$
>  <record-sequence>
ALLGLFIKWVKKVGTLFRKAKAGAQNRRAKAQKGK [FSD26]

>  <class>
t

$$$$
>  <record-sequence>
HHHHHHKWKLLRRAAKKAARRYLKLLLKQLKLHHHHHH [FSD1]

>  <class>
t

$$$$
>  <record-sequence>
HHHHHHLLKLWSRLLKEWTQGRRLEAKRAEAHHHHHH [FSD23]

>  <class>
t

$$$$
>  <record-sequence>
HHHHHHWLKLLRRAAKKAARLYRKLLRKARKLHHHHHH [FSD2]

>  <class>
t

$$$$

Dear colleague, could you confirm whether viability of HHHHAAVLKLWKRLLKLFRKGRRLKAKRAKAKR [FSD20] falls below 80%? Thanks.
t

Dear colleague, could you confirm whether viability of HHHHHHLALARWARYFRILAKLKRTKRGQAKAHHHHHH [FSD14] falls below 80%? Thanks.
f

Dear colleague, could you confirm whether viability of HHHHHHKWAKLLRAFAKAIKKLYARLARRQARTGHHHHHH [FSD13] falls below 80%? Thanks.
t

Dear colleague, could you confirm whether viability of HHHHHHLLKLWSRLLKLWTQGRRLKAKRAKA [FSD16] falls below 80%? Thanks.
f

Dear colleague, could you confirm whether viability of HHHHHHWYLALLALYWQRAKAKTRQRRRHHHHHH [FSD6] falls below 80%? Thanks.
f

Dear colleague, could you confirm whether viability of HHHHHHKRKKKRRAKKKRAWLYLALLLWALALHHHHHH [FSD3] falls below 80%? Thanks.
f

Dear colleague, could you confirm whether viability of HHHHHHKRQLKRKLRKWKRLLRLLRLLARLWLHHHHHH [FSD4] falls below 80%? Thanks.
f

Dear colleague, could you confirm whether viability of HHHHHHVWKLFWTLLAAIYGRGKARQKRAKRQARG [FSD25] falls below 80%? Thanks.
t

Dear colleague, could you confirm whether viability of HHHHHHWARLARAFARAIKKLYARALRRQARTG [FSD7] falls below 80%? Thanks.
t

Dear colleague, could you confirm whether viability of HHHHHHLAKLFKWLRALIRQGAKRKTKRASAHHHHHH [FSD17] falls below 80%? Thanks.
f

====

assay-name: in vitro
experimental-conditions: human, HeLa cells
Peptide text beside a SMILES is read from it.
value-kind: viability (%)
Give bare numbers, in %.

Which measured viability value corresponds to CC(C)C[C@H](NC(=O)[C@H](CC(C)C)NC(=O)[C@H](CCCCN)NC(=O)[C@H](CCCCN)NC(=O)[C@H](CC(C)C)NC(=O)[C@H](CC(C)C)NC(=O)[C@H](CCCCN)NC(=O)[C@H](CCCCN)NC(=O)[C@H](CC(C)C)NC(=O)[C@H](CC(C)C)NC(=O)[C@@H](N)CS)C(=O)N[C@@H](CCCCN)C(=O)N[C@@H](CCCCN)C(=O)N[C@@H](CS)C(=O)O [C(LLKK)3] (H-CLLKKLLKKLLKKC-OH; N-terminus and C-terminus assumed) ?
81.7

====

assay-name: in vitro
experimental-conditions: human, HeLa cells
Ends that are not written are not given here.
Answer each item with its documented viability.
Your reply should be a number followed by the unit it is expressed in.

The following sequences each have a reported value; give each one's viability.
1. HHHHHHKRKRRSKKRKLWTQGWLLLALLALAHHHHHH [FSN1]
2. HHHHHHKWKIARAFARSLKKLYARLLARQAKTGHHHHHH [FSD15]

["94.3%", "96.1%"]

====

Answer each item with its documented viability at 1 min, 10 µM.
assay-name: in vitro
experimental-conditions: human, HeLa cells, Cell viability (%) (±St. Dev.; n = 3)
Ends that are not written are not given here.
One number for each entry, in %.

Some solved entries appear below for comparison.
>  <record-sequence>
YHHHHHKWKKRWEAKLAKALRAAGRQARAKALAKA [FSD31]

>  <observed-result>
97.8

$$$$
>  <record-sequence>
HHHHHHKWKLFWEAKLAKYARAAARQARAARQARA [FSD27]

>  <observed-result>
96.6

$$$$
>  <record-sequence>
HHHHHHHMAHLWESNARKFWKKAFAQHAAAHIAEA [FSD28]

>  <observed-result>
99.4

$$$$
>  <record-sequence>
HHHHHHKLLKRWEAKLAKALAKALAKHLAKALAKA [FSD35]

>  <observed-result>
81.7

$$$$

The following sequences each have a reported value; give each one's viability at 1 min, 10 µM.
1. RLHHSHHLIHIWLLFKLKLKKKKRAARRARRHHHL [FSD37]
2. HHHHHHKLIHIWEAKLFKKIRAAARQARARRAAKA [FSD34]
3. YGRKKRYMLRLWYQNLRMYCKKAYAQHRARQHAKL [FSD40]
4. KWKLARAFARAIKKLGGSGGGSYARALRRQARTG [FSD10]

[73.9, 97.9, 83.9, 79.8]

====

assay-name: in vitro
experimental-conditions: mouse, HT2 cells
Ends that are not written are not given here.
value-kind: viability at 0.5 h, 10 µM

Which measured viability at 0.5 h, 10 µM value corresponds to LLKLWSRLLKLWTQGGSGGGSGRRLKAKRAKA [FSD18] ?
63.9%
